assay_details: Partition coefficient, log D of the compound at pH 7.4 by chromatographic method
details: octanol/water
# chromatographic logD listing for each entry below

Exercise: What value of measured chromatographic logD is listed for FC(F)(F)c1ccc(N(c2cccnc2)C2CCN(c3ccc(C(F)(F)F)cn3)CC2)cc1 ?
Solution: > 5.3

Exercise: What value of measured chromatographic logD is listed for FC(F)(F)c1ccc(N(c2cccnc2)C2CCN(c3ccc(Cl)cc3)CC2)cc1 ?
Solution: > 5.3

Exercise: What value of measured chromatographic logD is listed for Cc1ccccc1CN1CCC(N(c2ccc(C(F)(F)F)cc2)c2cccnc2)CC1 ?
Solution: > 5.3
